System: HBV
Measurement protocol: HBV inhibition assay in HepAD38 cells (extracellular HBV DNA by direct qPCR)
Assay type: cell-based, Hepatitis B virus
Condition info: Hepatitis B virus, 0.1 μM, 96 hours, relative to non-treated reference, read-out: Anti HBV Activity (conc μM)
Assay readout: inhibition at 0.1 µM

Hi there! I need inhibition at 0.1 µM for each item below, if you can.
1. CCOC(=O)N1CC2COc3c(cn(C)c3C(=O)Nc3ccc(F)c(F)c3)S(=O)(=O)NC2C1 (racemic) [Example E13]
2. Cn1cc2c(c1C(=O)Nc1cc(F)c(F)c(F)c1)OCC1CN(c3cnccn3)CC1NS2(=O)=O (stereo not drawn) [Example E82]
3. CC(C)NS(=O)(=O)N1CC2COc3c(cn(C)c3C(=O)Nc3cc(F)c(F)c(F)c3)S(=O)(=O)NC2C1 (racemic) [Example E21]
4. CCOC(=O)N1CC2COc3c(cn(C)c3C(=O)Nc3ccc(F)c(Cl)c3)S(=O)(=O)NC2C1 (racemic) [Example E15]
5. C[C@H](N)C(=O)N1C[C@@H]2COc3c(cn(C)c3C(=O)Nc3cc(F)c(F)c(F)c3)S(=O)(=O)N[C@@H]2C1 (mixture of isomers) [Example E67]
6. CCOC(=O)N1CC2COc3c(cn(C)c3C(=O)Nc3ccc(F)c(C(F)F)c3)S(=O)(=O)NC2C1 (racemic) [Example E16]
7. Cn1cc2c(c1C(=O)Nc1cc(F)c(F)c(F)c1)OC[C@@H]1CNC[C@@H]1NS2(=O)=O [Example E36]
8. Cn1cc2c(c1C(=O)Nc1cc(F)c(F)c(F)c1)OCC1CN(C(=O)CO)CC1NS2(=O)=O (stereo not drawn) [Example E71]

output:
> 50%
> 50%
> 50%
> 50%
< 50%
> 50%
< 50%
< 50%

Hi there! I need inhibition at 0.1 µM for each item below, if you can.
1. CNC(=O)N1CC[C@H]2NS(=O)(=O)c3cn(C)c(C(=O)Nc4ccc(F)c(F)c4)c3OC[C@H]21 (single isomer, unassigned) [Example E26]
2. Cn1cc2c(c1C(=O)Nc1cc(F)c(F)c(F)c1)OCC1CN(S(=O)(=O)C3CC3)CC1NS2(=O)=O (racemic) [Example E20]
3. CCOC(=O)N1CC2COc3c(cn(C)c3C(=O)Nc3ccc(F)c(C)c3)S(=O)(=O)NC2C1 (racemic) [Example E14]
4. CNC(=O)N1CC2COc3c(cn(C)c3C(=O)Nc3cc(F)c(F)c(F)c3)S(=O)(=O)NC2C1 (racemic) [Example E23]
5. Cn1cc2c(c1C(=O)Nc1ccc(F)c(F)c1)OC[C@H]1NCC[C@H]1NS2(=O)=O (single isomer, unassigned) [Example E25]
6. CC(=O)OCC(=O)N1CC2COc3c(cn(C)c3C(=O)Nc3cc(F)c(F)c(F)c3)S(=O)(=O)NC2C1 (stereo not drawn) [Example E70]
7. Cn1cc2c(c1C(=O)Nc1cc(F)c(F)c(F)c1)OCC1CCCC1NS2(=O)=O (racemic) [Example E28]
8. C[C@@H](O)[C@H](N)C(=O)N1C[C@@H]2COc3c(cn(C)c3C(=O)Nc3cc(F)c(F)c(F)c3)S(=O)(=O)N[C@@H]2C1 (mixture of isomers) [Example E69]

output:
["< 50%", "> 50%", "> 50%", "> 50%", "< 50%", "< 50%", "> 50%", "< 50%"]

Hi there! I need inhibition at 0.1 µM for each item below, if you can.
1. Cc1cc(NC(=O)c2c3c(cn2C)S(=O)(=O)NC2CN(C(=O)c4cccnc4)CC2CO3)ccc1F (stereo not drawn) [Example E54]
2. Cn1cc2c(c1C(=O)Nc1cc(F)c(F)c(F)c1)OCC1CN(C(=O)OC3CO[C@H]4OCC[C@@H]34)CC1NS2(=O)=O (mixture of isomers) [Example E22]
3. Cn1cc2c(c1C(=O)Nc1ccc(F)c(F)c1)OCC1(C)CCCC1NS2(=O)=O (stereo not drawn) [Example E29]
4. Cn1cc2c(c1C(=O)Nc1cc(F)c(F)c(F)c1)OCC1CN(c3ccccn3)CC1NS2(=O)=O (stereo not drawn) [Example E81]
5. CN1CC2COc3c(cn(C)c3C(=O)Nc3cc(F)c(F)c(F)c3)S(=O)(=O)NC2C1 (racemic) [Example E12]
6. Cn1cc2c(c1C(=O)Nc1cc(F)c(F)c(F)c1)OC[C@H]1CN(C(=O)[C@@H](N)CO)C[C@H]1NS2(=O)=O (mixture of isomers) [Example E68]
7. Cn1cc2c(c1C(=O)Nc1cc(F)c(F)c(F)c1)OCC1CN(C(=O)c3c[nH]c(=O)cn3)CC1NS2(=O)=O (stereo not drawn) [Example E56]
8. CCOC(=O)N1CC2COc3c(cn(C)c3C(=O)Nc3ccc(F)c(C#N)c3)S(=O)(=O)NC2C1 (racemic) [Example E17]

output:
> 50%
> 50%
< 50%
> 50%
> 50%
< 50%
< 50%
> 50%

Hi there! I need inhibition at 0.1 µM for each item below, if you can.
1. CC(C)S(=O)(=O)N1CC2COc3c(cn(C)c3C(=O)Nc3cc(F)c(F)c(F)c3)S(=O)(=O)NC2C1 (racemic) [Example E18]
2. Cn1cc2c(c1C(=O)Nc1cc(F)c(F)c(F)c1)OCC1CNCC1NS2(=O)=O (racemic) [Example E11]
3. Cc1cc(NC(=O)c2c3c(cn2C)S(=O)(=O)N[C@@H]2CN(C(=O)c4ccncc4)C[C@@H]2CO3)ccc1F (relative stereo) [Example E55]

output:
1. > 50%
2. > 50%
3. > 50%
